Please respond with reported IC50 for every item in the list.
targetOrTestSystem: Bromodomain-containing protein 4 (Homo sapiens)
protocolText: Inhibition of recombinant BRD4 BD1 (unknown origin) using H4KAc as substrate incubated for 30 mins by HTRF analysis

Worked cases, IC50 given:
CCCN(N)C(=O)c1ccc(Nc2nc(Nc3ccc(N4CCN(C)CC4)c(F)c3)ncc2C)cc1
2360 nM
Cc1cnc(Nc2ccc(/C=C/C(=O)NO)cc2)nc1Nc1ccc(Cl)c(NS(=O)(=O)C(C)(C)C)c1
1290 nM

Task: Any idea what IC50 was measured for Cc1cnc(Nc2ccc(N3CCN(C)CC3)c(F)c2)nc1Nc1ccc(C(=O)Nc2ccccc2N)cc1 ?
Result: 1810 nM

* * *

targetOrTestSystem: UniProt P29597
Sequence (P29597 whole entry): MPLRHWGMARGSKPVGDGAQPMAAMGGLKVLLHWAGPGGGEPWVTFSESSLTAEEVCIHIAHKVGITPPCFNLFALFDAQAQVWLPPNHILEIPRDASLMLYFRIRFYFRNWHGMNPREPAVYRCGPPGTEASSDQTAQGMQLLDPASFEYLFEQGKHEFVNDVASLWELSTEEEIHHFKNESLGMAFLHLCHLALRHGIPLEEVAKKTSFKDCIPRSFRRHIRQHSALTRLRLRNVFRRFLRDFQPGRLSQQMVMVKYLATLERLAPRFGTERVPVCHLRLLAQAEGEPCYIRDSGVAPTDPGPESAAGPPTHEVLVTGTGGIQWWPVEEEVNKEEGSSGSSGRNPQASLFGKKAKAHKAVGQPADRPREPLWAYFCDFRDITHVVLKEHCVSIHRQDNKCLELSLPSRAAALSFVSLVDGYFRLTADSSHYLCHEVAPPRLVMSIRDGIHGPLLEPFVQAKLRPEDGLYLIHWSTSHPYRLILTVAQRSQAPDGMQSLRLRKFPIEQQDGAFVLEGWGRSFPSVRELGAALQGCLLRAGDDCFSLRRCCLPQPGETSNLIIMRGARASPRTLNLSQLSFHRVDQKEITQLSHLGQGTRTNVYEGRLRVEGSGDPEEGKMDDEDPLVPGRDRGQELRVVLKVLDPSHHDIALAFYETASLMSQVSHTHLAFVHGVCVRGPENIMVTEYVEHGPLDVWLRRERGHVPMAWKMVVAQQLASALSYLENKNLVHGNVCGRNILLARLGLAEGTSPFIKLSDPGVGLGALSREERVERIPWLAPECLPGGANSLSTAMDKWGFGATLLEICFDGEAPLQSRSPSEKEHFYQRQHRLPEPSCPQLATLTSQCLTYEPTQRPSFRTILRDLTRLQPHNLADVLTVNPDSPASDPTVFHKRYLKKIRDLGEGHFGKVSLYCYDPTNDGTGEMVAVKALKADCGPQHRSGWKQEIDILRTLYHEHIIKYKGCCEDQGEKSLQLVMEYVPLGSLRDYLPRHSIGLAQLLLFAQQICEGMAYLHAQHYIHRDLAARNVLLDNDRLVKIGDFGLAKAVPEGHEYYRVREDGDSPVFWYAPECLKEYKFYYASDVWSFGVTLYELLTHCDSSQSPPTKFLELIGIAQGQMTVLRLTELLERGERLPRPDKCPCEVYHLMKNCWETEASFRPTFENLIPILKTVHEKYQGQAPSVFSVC
protocolText: Inhibition of TYK2 (unknown origin) incubated for 40 mins in presence of ATP by Kinase-glo luminescent assay
observable: pIC50
Give bare numbers, as −log10 of the molar value.

Task: What value of pIC50 has been recorded for this entry: Cc1cnc(Nc2ccc(OCCN3CCCC3)cc2)nc1Nc1ccc(C(=O)NO)cc1
Result: 7.00

* * *

protocolText: Tmax in ICR (CD-1) mouse at 50 mg/kg, ip measured for 24 hrs by LC-MS/MS analysis
Type: ADME, organism-based
conditionsUsed: in vivo
observable: Tmax (min)
Give bare numbers, in min.

Sample records with Tmax:
Cc1cnc(Nc2ccc(OCCN3CCCC3)cc2)nc1Nc1ccc(C(=O)NO)cc1
11.4
O=C(CCCCCCC(=O)Nc1ccccc1)NO
4.8

Could you now look at the following molecule, please?
Task: Could you tell me which Tmax is on file for Cc1cnc(Nc2ccc(OCCN3CCCC3)cc2)nc1Nc1cccc(S(=O)(=O)NC(C)(C)C)c1 ?
Result: 4.8

* * *

targetOrTestSystem: Proto-oncogene tyrosine-protein kinase receptor Ret (Homo sapiens, UniProt P07949)
Sequence (P07949 whole entry): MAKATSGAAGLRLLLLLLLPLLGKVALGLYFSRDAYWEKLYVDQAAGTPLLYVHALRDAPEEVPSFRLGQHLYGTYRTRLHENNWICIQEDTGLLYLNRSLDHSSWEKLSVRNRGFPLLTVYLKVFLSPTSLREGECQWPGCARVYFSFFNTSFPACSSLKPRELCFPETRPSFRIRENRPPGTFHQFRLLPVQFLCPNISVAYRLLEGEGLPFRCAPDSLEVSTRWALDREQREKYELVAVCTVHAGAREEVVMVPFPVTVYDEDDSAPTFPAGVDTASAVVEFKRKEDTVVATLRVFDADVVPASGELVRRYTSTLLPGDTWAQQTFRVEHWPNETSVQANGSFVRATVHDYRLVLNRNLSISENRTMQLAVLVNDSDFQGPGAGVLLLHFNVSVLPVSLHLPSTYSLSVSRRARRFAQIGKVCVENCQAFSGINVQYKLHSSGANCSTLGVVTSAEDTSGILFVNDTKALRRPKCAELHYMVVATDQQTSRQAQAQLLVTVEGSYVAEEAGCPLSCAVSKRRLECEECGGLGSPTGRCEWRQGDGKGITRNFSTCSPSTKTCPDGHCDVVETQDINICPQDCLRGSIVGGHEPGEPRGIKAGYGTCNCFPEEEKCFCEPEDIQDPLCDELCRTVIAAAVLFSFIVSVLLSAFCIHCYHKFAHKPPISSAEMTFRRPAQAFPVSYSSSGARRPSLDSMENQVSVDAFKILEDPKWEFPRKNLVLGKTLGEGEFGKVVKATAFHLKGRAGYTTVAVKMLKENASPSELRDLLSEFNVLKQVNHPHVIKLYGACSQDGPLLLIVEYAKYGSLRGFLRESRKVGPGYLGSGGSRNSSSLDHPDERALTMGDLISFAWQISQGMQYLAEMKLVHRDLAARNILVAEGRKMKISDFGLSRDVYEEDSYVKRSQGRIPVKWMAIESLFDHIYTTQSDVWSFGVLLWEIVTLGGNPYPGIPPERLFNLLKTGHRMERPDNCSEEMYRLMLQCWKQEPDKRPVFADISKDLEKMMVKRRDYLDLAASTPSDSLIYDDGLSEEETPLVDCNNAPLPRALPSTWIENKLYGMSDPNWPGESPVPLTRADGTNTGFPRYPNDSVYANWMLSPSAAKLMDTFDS
observable: pIC50
Answers are plain numbers, as −log10 of the molar value.

Task: Item Cc1cnc(Nc2ccc(OCCN3CCCC3)cc2)nc1Nc1ccc(C(=O)NO)cc1 with Proto-oncogene tyrosine-protein kinase receptor Ret (Homo sapiens, UniProt P07949) - pIC50?
Result: 7.33

* * *

For each entry below, report its pIC50 value.
Tested on: MDA-MB-231
protocolText: cells
conditionsUsed: Homo sapiens, MDA-MB-231, 48 h
One number for each entry, as −log10 of the molar value.

Please review the following examples before continuing.
CCCN(N)C(=O)c1ccc(Nc2nc(Nc3ccc(N4CCN(C)CC4)c(F)c3)ncc2C)cc1
5.35
Cc1cnc(Nc2ccc(N3CCN(C)CC3)c(F)c2)nc1Nc1ccc(C(=O)Nc2ccccc2N)cc1
5.66

Below are 2 compounds. Give each one its pIC50.
1. Cc1cnc(Nc2ccc(OCCN3CCCC3)cc2)nc1Nc1cccc(S(=O)(=O)NC(C)(C)C)c1
2. Cc1cnc(Nc2ccc(/C=C/C(=O)NO)cc2)nc1Nc1ccc(Cl)c(NS(=O)(=O)C(C)(C)C)c1

Result:
1. 5.85
2. 5.47

* * *

For each of the compounds below, state its selectivity ratio.
protocolText: Selectivity index, ratio of IC50 for human GES-1 cells to IC50 for human MDA-MB-231 cells

See these solved cases before continuing.
CCCN(N)C(=O)c1ccc(Nc2nc(Nc3ccc(N4CCN(C)CC4)c(F)c3)ncc2C)cc1
2.5
Cc1cnc(Nc2ccc(N3CCN(C)CC3)c(F)c2)nc1Nc1ccc(C(=O)Nc2ccccc2N)cc1
4.4

Next compound, please.
Task: # lookup: selectivity ratio of Cc1cnc(Nc2ccc(/C=C/C(=O)NO)cc2)nc1Nc1ccc(Cl)c(NS(=O)(=O)C(C)(C)C)c1
Result: 7.1
